B1: TPR 5TU (parent)
chain: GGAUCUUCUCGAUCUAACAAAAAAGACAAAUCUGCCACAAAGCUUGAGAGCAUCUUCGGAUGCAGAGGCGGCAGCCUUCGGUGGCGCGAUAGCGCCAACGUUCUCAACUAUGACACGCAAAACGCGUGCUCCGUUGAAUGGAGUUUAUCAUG

# Variants of: B1
# measurement description: polymerase ribozyme fitness, log enrichment relative to wild type (log ratio); higher = more active; in vitro selection for triplet polymerase activity
Fewer inactive variants are shown than the library holds.
In this section, each of the variants is paired with its reported polymerase ribozyme fitness (log ratio).

// known answers, use as guide
| mutant designation | result |
| --- | --- |
| A21G G81A C95U A107G A119C G141U | ≤ -4.2 |
| C38U A73G C87U | 0.139 |
| U53A C93U U130G | ≤ -4.2 |
| A19G U90G | ≤ -4.2 |
| A16U A29U U45G U61G C93A | ≤ -4.2 |

Q. // polymerase ribozyme fitness (log ratio) lookup, key: G50C C96G U144C
A. ≤ -4.2

Q. Please report the recorded polymerase ribozyme fitness (log ratio) for C105A A113U .
A. ≤ -4.2

Q. Fill in the blank: the reported polymerase ribozyme fitness (log ratio) of A37G A47U G81C C95G U102G A120U U134C U135G A137C is ____.
A. ≤ -4.2

Q. I am curious: what polymerase ribozyme fitness (log ratio) value has been reported for A115U U148G ?
A. -4.15

Q. Quick check: polymerase ribozyme fitness (log ratio) of A29U C32U G62A G67U C75G U82G A142U A150G ?
A. -3.64

Q. Would you mind telling me what polymerase ribozyme fitness (log ratio) value was observed for C38U G83U C149G A150C ?
A. ≤ -4.2

Q. Requested read-out: polymerase ribozyme fitness (log ratio). Entry: C108U A142C
A. -3.43

Q. Entry under review: A39G G58U G59C G124C G136A . Reported polymerase ribozyme fitness (log ratio)?
A. ≤ -4.2

Q. Query: polymerase ribozyme fitness (log ratio); subject: C35U A52C C85U G117U
A. -2.29

Q. Suppose we examine the variant A20C U61A C63U C85U ; what polymerase ribozyme fitness (log ratio) value has been reported?
A. -1.55

Q. Any idea what its polymerase ribozyme fitness (log ratio) is? The variant is U53G C87G G133U
A. ≤ -4.2

Q. // returns reported polymerase ribozyme fitness (log ratio) for input C32G A37C C85G
A. ≤ -4.2

Q. Consider the variant U7C G50U G140U and give its measured polymerase ribozyme fitness (log ratio).
A. ≤ -4.2

Q. # input variant: A98G C132G G136C ; wanted: its polymerase ribozyme fitness (log ratio)
A. -4.12

Q. Requested read-out: polymerase ribozyme fitness (log ratio). Entry: A40U C57U C76A
A. -0.244

Q. Which polymerase ribozyme fitness (log ratio) is reported for this variant? A37C A40C G48C G74A G94A G126C G133A G136A A150U
A. ≤ -4.2

Q. For the variant C32G G48U G68A U134A U145C , what polymerase ribozyme fitness (log ratio) is on record?
A. ≤ -4.2
